assay: Selectivity index, ratio of IC50 for human Huh7ET cells to EC50 for Hepatitis C virus; format: toxicity, cell-based, Huh-7; conditions: read-out: Ratio IC50/EC50
Assign labels as follows, please: met for selectivity ratio below 3; not met for selectivity ratio equal to or exceeding 3.

# TODO verify selectivity ratio < 3 strictly for this molecule: `CN(c1cc2ncc(=O)[nH]c2cc1Nc1nc(-c2cccnc2)cs1)C1CCCCC1`
met

# TODO verify selectivity ratio < 3 strictly for this molecule: `CN(c1ccccc1)c1cc2ncc(=O)[nH]c2cc1Nc1nc(-c2ccccc2)cs1`
not met

# TODO verify selectivity ratio < 3 strictly for this molecule: `CN(c1cc2ncc(=O)[nH]c2cc1Nc1nc(-c2ccc(Cl)cc2)cs1)C1CCCCC1`
not met

# TODO verify selectivity ratio < 3 strictly for this molecule: `Cc1nc2cc(N(C)C3CCCCC3)c(Nc3nc(-c4ccccc4)cs3)cc2[nH]c1=O`
not met

# TODO verify selectivity ratio < 3 strictly for this molecule: `CN(C)c1cc2ncc(=O)[nH]c2cc1Nc1nc(-c2ccccc2)cs1`
met

----------
assay: Selectivity index, ratio of IC50 for human Huh7ET cells to EC50 for Hepatitis C virus; type: toxicity, cell-based, Huh-7; conditions: read-out: Ratio IC50/EC50
Endpoint name: selectivity ratio

Endpoint output: selectivity ratio of `CN(c1cc2ncc(=O)[nH]c2cc1NC(=S)NC(=O)c1ccc(F)cc1)C1CCCCC1` . Value?
3.8

Endpoint output: selectivity ratio of `CCN(CC)c1cc2ncc(=O)[nH]c2cc1Nc1nc(-c2ccccc2)cs1` . Value?
17.9

Endpoint output: selectivity ratio of `CN(c1cc2ncc(=O)[nH]c2cc1N1C(=O)CN(c2cccc3ccccc23)C1=S)C1CCCCC1` . Value?
0.85

Endpoint output: selectivity ratio of `CN(c1cc2ncc(=O)[nH]c2cc1NC(=N)NCc1cccc(C(F)(F)F)c1)C1CCCCC1` . Value?
< 2.7

Endpoint output: selectivity ratio of `CN(c1cc2ncc(=O)[nH]c2cc1Nc1nc2c(s1)Cc1ccccc1-2)C1CCCCC1` . Value?
2.39

Endpoint output: selectivity ratio of CN(c1cc2c(cc1Nc1nc(-c3ccccc3)cs1)NC(=O)C1CCCCN21)C1CCCCC1 (centres undefined) . Value?
9.27

Endpoint output: selectivity ratio of `CN(c1cc2ncc(=O)[nH]c2cc1NC(=S)NC(=O)c1ccccc1)C1CCCCC1` . Value?
4.57

Endpoint output: selectivity ratio of `CN(c1cc2ncc(=O)[nH]c2cc1Nc1nc(-c2ccc3c(c2)OCO3)cs1)C1CCCCC1` . Value?
< 3.1

Endpoint output: selectivity ratio of `CN(c1cc2ncc(=O)[nH]c2cc1Nc1nc(-c2ccccc2)cs1)C1CCCCC1` . Value?
37.4

----------
assay: Selectivity index, ratio of IC50 for human Huh7ET cells to EC50 for Hepatitis C virus; format: toxicity, cell-based, Huh-7; conditions: read-out: Ratio IC50/EC50
Note to self: class labels come from recorded selectivity ratio, ranges listed here: lower band (below 2), central band (2 to below 5), upper band (5 or more)

Class label required: `CN(c1cc2c(cc1Nc1nc(-c3ccccc3)cs1)[nH]c(=O)c1cccn12)C1CCCCC1`
upper band

Class label required: `CN(c1cc2ncc(=O)[nH]c2cc1NC(=S)NC(=O)c1cccc(C(F)(F)F)c1)C1CCCCC1`
upper band

Class label required: `CN(c1cc2ncc(=O)[nH]c2cc1Nc1nc(C(F)(F)F)cs1)C1CCCCC1`
central band

Class label required: `O=c1cnc2cc(N3CCOCC3)c(Nc3nc(-c4ccccc4)cs3)cc2[nH]1`
upper band

Class label required: `CC(C)Cc1nc2cc(N(C)C3CCCCC3)c(Nc3nc(-c4ccccc4)cs3)cc2[nH]c1=O`
upper band

Class label required: `CN(c1cc2ncc(=O)[nH]c2cc1Nc1nc(-c2ccc(F)cc2)cs1)C1CCCCC1`
lower band

Class label required: `CN(c1cc2ncc(=O)[nH]c2cc1NC(=N)NCc1ccc(F)cc1)C1CCCCC1`
lower band

Class label required: `CN(c1cc2ncc(=O)[nH]c2cc1NC(=S)NC(=O)/C=C/c1ccccc1)C1CCCCC1`
lower band

Class label required: `Cc1ccsc1C(=O)NC(=S)Nc1cc2[nH]c(=O)cnc2cc1N(C)C1CCCCC1`
central band

Class label required: `CN(c1cc2ncc(=O)[nH]c2cc1NC(=N)NCc1ccccc1)C1CCCCC1`
lower band

Class label required: `CN(c1cc2ncc(=O)[nH]c2cc1NC(=O)Nc1ccccc1)C1CCCCC1`
lower band

Class label required: `CN(c1cc2c(cc1Nc1nc(-c3ccccc3)cs1)NC(=O)CS2)C1CCCCC1`
lower band

Class label required: `CN(c1cc2c(cc1Nc1nc(-c3ccccc3)cs1)NC(=O)CO2)C1CCCCC1`
lower band

Class label required: `CN(c1cc2ncc(=O)[nH]c2cc1NC(=S)NC(=O)c1ccc(OC(F)(F)F)cc1)C1CCCCC1`
central band

Class label required: `COc1cc(C(=O)NC(=S)Nc2cc3[nH]c(=O)cnc3cc2N(C)C2CCCCC2)cc(OC)c1OC`
central band

----------
Would you mind telling me the reported selectivity ratio of each entry?
test: Selectivity index, ratio of IC50 for human Huh7ET cells to EC50 for Hepatitis C virus; format: toxicity, cell-based, Huh-7; settings: read-out: Ratio IC50/EC50

Endpoint output: selectivity ratio of `CN(c1cc2nc(Cc3ccccc3)c(=O)[nH]c2cc1Nc1nc(-c2ccccc2)cs1)C1CCCCC1` . Value?
< 2.1

Endpoint output: selectivity ratio of `CN(c1cc2ncc(=O)[nH]c2cc1NC(=S)Nc1ccccc1)C1CCCCC1` . Value?
< 2.8

Endpoint output: selectivity ratio of `CN(c1cc2ncc(=O)[nH]c2cc1NC(=S)Nc1ccc(F)cc1)C1CCCCC1` . Value?
< 3.2

Endpoint output: selectivity ratio of `CN(c1cc2ncc(=O)[nH]c2cc1Nc1nc(-c2cccs2)cs1)C1CCCCC1` . Value?
< 3.6
